Quick reference for pIC50 among some compounds
biological target: human Nav1.7 (Homo sapiens (Human), UniProt Q15858); assay: Human Nav1.7 inhibitory activity evaluation (automated patch clamp QPatch16X, HEK293A cells stably expressing human Nav1.7 and human Navβ1); format: cell-based; conditions: human Nav1.7, automated patch clamp
Sequence (Q15858 whole entry): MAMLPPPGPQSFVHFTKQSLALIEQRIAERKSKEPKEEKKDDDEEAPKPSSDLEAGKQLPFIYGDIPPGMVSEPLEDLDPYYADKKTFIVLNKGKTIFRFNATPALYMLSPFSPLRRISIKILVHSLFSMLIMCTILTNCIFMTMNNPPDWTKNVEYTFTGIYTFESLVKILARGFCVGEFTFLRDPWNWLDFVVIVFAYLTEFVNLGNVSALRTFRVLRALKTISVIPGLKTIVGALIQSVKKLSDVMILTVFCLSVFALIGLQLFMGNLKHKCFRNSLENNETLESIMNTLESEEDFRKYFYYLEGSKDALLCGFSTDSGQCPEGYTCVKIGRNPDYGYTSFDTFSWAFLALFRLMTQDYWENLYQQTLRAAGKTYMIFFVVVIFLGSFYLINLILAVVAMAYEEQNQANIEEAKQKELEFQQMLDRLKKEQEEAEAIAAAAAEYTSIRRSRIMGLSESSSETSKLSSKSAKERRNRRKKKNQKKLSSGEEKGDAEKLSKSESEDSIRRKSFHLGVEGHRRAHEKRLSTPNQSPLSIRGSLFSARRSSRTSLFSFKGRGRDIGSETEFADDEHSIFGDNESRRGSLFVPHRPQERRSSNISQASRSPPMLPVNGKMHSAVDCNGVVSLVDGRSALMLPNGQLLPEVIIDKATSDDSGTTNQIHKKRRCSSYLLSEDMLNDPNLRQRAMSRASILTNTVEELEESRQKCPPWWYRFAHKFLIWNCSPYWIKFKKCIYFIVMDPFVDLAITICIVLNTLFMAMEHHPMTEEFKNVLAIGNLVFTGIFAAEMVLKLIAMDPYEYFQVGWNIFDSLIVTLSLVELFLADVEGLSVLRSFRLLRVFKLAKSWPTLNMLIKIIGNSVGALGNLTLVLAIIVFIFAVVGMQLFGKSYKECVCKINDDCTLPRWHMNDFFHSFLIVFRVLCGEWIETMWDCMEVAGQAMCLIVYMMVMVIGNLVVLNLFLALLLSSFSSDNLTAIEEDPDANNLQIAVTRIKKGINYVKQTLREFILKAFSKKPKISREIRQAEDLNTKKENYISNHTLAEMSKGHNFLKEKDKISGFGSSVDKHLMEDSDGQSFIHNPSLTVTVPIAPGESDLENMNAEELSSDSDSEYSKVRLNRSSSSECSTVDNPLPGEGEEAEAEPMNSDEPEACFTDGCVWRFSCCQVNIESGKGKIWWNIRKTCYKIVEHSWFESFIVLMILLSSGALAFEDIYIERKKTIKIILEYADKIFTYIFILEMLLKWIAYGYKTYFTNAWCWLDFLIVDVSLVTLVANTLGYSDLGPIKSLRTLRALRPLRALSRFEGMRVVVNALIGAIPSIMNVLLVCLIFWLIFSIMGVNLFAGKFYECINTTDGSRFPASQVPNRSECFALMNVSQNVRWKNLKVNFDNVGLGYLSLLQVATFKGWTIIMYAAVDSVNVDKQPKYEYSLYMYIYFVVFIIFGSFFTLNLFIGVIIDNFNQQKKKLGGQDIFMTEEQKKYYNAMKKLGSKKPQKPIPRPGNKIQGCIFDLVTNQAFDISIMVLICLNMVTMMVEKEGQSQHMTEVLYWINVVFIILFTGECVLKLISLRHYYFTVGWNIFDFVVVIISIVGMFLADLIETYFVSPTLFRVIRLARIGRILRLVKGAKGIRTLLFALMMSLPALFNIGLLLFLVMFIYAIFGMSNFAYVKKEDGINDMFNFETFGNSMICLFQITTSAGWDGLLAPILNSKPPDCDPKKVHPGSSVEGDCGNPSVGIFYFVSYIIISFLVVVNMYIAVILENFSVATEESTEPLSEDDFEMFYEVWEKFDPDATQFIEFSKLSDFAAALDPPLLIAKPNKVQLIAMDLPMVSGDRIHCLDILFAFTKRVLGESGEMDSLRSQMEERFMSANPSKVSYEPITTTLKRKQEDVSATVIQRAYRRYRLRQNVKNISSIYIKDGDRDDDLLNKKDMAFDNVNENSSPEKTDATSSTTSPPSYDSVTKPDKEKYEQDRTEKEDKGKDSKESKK
Sequence (Q07699 19-218 partner): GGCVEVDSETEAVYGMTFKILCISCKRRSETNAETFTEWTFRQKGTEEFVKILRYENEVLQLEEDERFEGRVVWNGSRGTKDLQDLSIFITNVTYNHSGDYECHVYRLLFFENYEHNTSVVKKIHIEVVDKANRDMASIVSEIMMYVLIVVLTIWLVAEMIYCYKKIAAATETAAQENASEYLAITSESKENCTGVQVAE
pIC50: −log10 of the molar value.

Exam item: Quick one: pIC50 for O=C(N[C@H]1COc2ccc(C(F)(F)F)cc2C1F)c1cc2n(n1)CCN(CCOCC(F)(F)F)C2 (some centres unmarked) ?
Marked response: > 6.00

Exam item: I have this compound here, O=C(N[C@H]1COc2ccc(-c3cnccn3)cc2C1)c1cc2n(n1)CC(CCOC(F)F)O2 (some centres unmarked) [Example 222] , and I need its recorded pIC50.
Marked response: > 6.00

Exam item: // query pIC50 value for entry O=C(N[C@H]1COc2ccc(CCOC(F)(F)F)cc2C1)c1nc2n(c1-c1ccccn1)CCCC2
Marked response: > 6.00

Exam item: Form field: reported pIC50 of O=C(N[C@H]1COc2ccc(COCC(F)(F)F)cc2C1)c1cc2n(n1)CCC(COC(F)F)O2 (single isomer, unassigned) [140 (isomer B)]
Marked response: > 6.00

Exam item: Fill in: pIC50 of O=C(N[C@H]1COc2ccc(Cl)cc2C1)c1cc2n(n1)CCC(CNCC(F)(F)F)O2 (some centres unmarked) [Example 151] is ___
Marked response: > 6.00
